Biological target: G-protein coupled receptor 151 (Homo sapiens) (UniProt Q8TDV0)
Sequence (Q8TDV0 whole entry, looked up): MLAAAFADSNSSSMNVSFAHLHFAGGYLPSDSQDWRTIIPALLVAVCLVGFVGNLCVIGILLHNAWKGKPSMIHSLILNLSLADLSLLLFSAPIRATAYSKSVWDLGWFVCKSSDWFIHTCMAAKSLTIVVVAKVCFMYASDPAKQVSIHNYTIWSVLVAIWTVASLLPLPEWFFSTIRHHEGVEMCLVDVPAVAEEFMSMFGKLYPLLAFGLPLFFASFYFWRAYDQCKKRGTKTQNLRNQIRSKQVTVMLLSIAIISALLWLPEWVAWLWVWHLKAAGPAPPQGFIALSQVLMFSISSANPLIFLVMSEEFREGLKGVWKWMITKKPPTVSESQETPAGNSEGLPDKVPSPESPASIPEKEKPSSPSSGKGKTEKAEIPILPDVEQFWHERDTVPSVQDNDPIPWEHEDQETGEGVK
Assay: GPR151 activator potency, dose response, cell-based (AID 1508610)
Conditions: cell-based GPR151 activation reporter
Active and inactive are the calls of the source. No rule for the calls is given here.
Result type: EC50

Compound	EC50
COc1ccc(S(=O)(=O)Nc2ccc(F)c(F)c2)cc1C	> 28 µM (inactive)
OCCC1CN(Cc2ccc3nonc3c2)CCN1Cc1ccc(F)c(F)c1 (stereo not given)	> 28 µM (inactive)

Which EC50 is reported for this compound? O=C(Nc1nnc(SCc2cccc(F)c2)s1)C1CC1
> 29 µM (inactive)

Fill in the blank: the reported EC50 of Cn1c(=O)[nH]c(=O)c2c1nc(N1CCN(c3cccc(Cl)c3)CC1)n2Cc1ccccc1 is ____.
> 22.4 µM (inactive)

Please report the recorded EC50 for Cn1cccc1C(=O)OCC(=O)NC(=O)NCc1ccccc1 .
> 28.4 µM (inactive)

Name the reported EC50 value associated with the compound CC(=O)c1c(C)[nH]c(C(=O)N2CCN(c3ccccc3)CC2)c1C
> 28 µM (inactive)

For the compound Cc1nc(NC(=O)CSc2ccc(-c3nc4ccccc4[nH]3)cn2)sc1C , what EC50 is on record?
> 28 µM (inactive)

For the compound shown here, CCN(CC)C(=O)CN(c1ccccc1)S(=O)(=O)c1ccc(C)cc1 , give the reported EC50.
> 28 µM (inactive)

So what's the measured EC50 for this one? CC(=O)c1cccc(NC(=O)CC2S\C(=N/N=C/C=C/c3ccccc3)NC2=O)c1 (stereo not given)
> 28 µM (inactive)

State the recorded EC50 for this entry: CCOC(=O)C1=C(C)N=c2s/c(=C\c3ccc(-c4ccccc4C(=O)O)o3)c(=O)n2C1c1ccccc1OC (stereo not given)
> 25.1 µM (inactive)

All values here come from PubChem BioAssay AID1508610.
